# TARGET_SYSTEM: CNS nicotinic receptors
# METHOD: Determination of binding to relevant receptor sites
# SETUP_CONDITIONS: inhibition constant calculated from IC50 by the method of Cheng et al.
ENDPOINT_LABEL: pKi
Units for pKi: none; it is -log10 of a concentration expressed in mol/L.

[Q] Value lookup for pKi; key = Brc1cncc(N2C[C@@H]3C[C@H]2CN3)c1
[A] 7.25
